Known growth at 10 µM of a selection of compounds
- System: SN12C
- Assay Overview: Cytotoxicity against human SN12C cells assessed as cell growth at 10 uM after 48 hrs by SRB assay
- Format: functional
- Study Conditions: read-out: Activity
Quantity Measured: growth at 10 µM (%)

compound=CC1=NN(c2cn3c(-c4ccc(C)cc4)csc3n2)C(=O)C1 assayed_system=SN12C quantity_measured="growth at 10 µM" endpoint_result=96.4
compound=O=C1CN2C(c3ccccc3)=CSC2=N1 assayed_system=SN12C quantity_measured="growth at 10 µM" endpoint_result=91.5
compound=CC1=NN(c2cn3c(-c4ccccc4)csc3n2)C(=O)C1 assayed_system=SN12C quantity_measured="growth at 10 µM" endpoint_result=96
compound=CC1=NN(c2cn3c(-c4ccc(Cl)cc4)csc3n2)C(=O)C1 assayed_system=SN12C quantity_measured="growth at 10 µM" endpoint_result=90.9
compound=O=C1CC(=O)N(c2cn3c(-c4ccc(Cl)cc4)csc3n2)N1 assayed_system=SN12C quantity_measured="growth at 10 µM" endpoint_result=88.4
compound=Cc1cc(C)n(-c2cn3c(-c4ccccc4)csc3n2)n1 assayed_system=SN12C quantity_measured="growth at 10 µM" endpoint_result=96.5
compound=Cc1ccc(-c2csc3nc(-n4nc(C)cc4C)cn23)cc1 assayed_system=SN12C quantity_measured="growth at 10 µM" endpoint_result=98.1
compound=Cc1ccc(-c2csc3nc(N4NC(=O)CC4=O)cn23)cc1 assayed_system=SN12C quantity_measured="growth at 10 µM" endpoint_result=104
compound=Cc1cc(C)n(-c2cn3c(-c4ccc(Cl)cc4)csc3n2)n1 assayed_system=SN12C quantity_measured="growth at 10 µM" endpoint_result=89
compound=O=C1CN2C(c3ccc(Cl)cc3)=CSC2=N1 assayed_system=SN12C quantity_measured="growth at 10 µM" endpoint_result=94.9
compound=O=C1CC(=O)N(c2cn3c(-c4ccccc4)csc3n2)N1 assayed_system=SN12C quantity_measured="growth at 10 µM" endpoint_result=92.2

* * *

Measured growth at 10 µM accompanies every entry in the list below.
- System: SW-620
- Assay Overview: Cytotoxicity against human SW620 cells assessed as cell growth at 10 uM after 48 hrs by SRB assay
- Type: functional
- Study Conditions: SW-620, 48 h, read-out: Activity
Quantity Measured: growth at 10 µM (%)

compound=O=C1CN2C(c3ccccc3)=CSC2=N1 quantity_measured="growth at 10 µM" scale_unit=% endpoint_result=94.8
compound=CC1=NN(c2cn3c(-c4ccccc4)csc3n2)C(=O)C1 quantity_measured="growth at 10 µM" scale_unit=% endpoint_result=104
compound=Cc1cc(C)n(-c2cn3c(-c4ccc(Cl)cc4)csc3n2)n1 quantity_measured="growth at 10 µM" scale_unit=% endpoint_result=100
compound=Cc1ccc(-c2csc3nc(N4NC(=O)CC4=O)cn23)cc1 quantity_measured="growth at 10 µM" scale_unit=% endpoint_result=103
compound=Cc1ccc(-c2csc3nc(-n4nc(C)cc4C)cn23)cc1 quantity_measured="growth at 10 µM" scale_unit=% endpoint_result=106
compound=Cc1cc(C)n(-c2cn3c(-c4ccccc4)csc3n2)n1 quantity_measured="growth at 10 µM" scale_unit=% endpoint_result=102
compound=O=C1CN2C(c3ccc(Cl)cc3)=CSC2=N1 quantity_measured="growth at 10 µM" scale_unit=% endpoint_result=101
compound=CC1=NN(c2cn3c(-c4ccc(Cl)cc4)csc3n2)C(=O)C1 quantity_measured="growth at 10 µM" scale_unit=% endpoint_result=99.3
compound=O=C1CC(=O)N(c2cn3c(-c4ccccc4)csc3n2)N1 quantity_measured="growth at 10 µM" scale_unit=% endpoint_result=107
compound=CC1=NN(c2cn3c(-c4ccc(C)cc4)csc3n2)C(=O)C1 quantity_measured="growth at 10 µM" scale_unit=% endpoint_result=105
compound=O=C1CC(=O)N(c2cn3c(-c4ccc(Cl)cc4)csc3n2)N1 quantity_measured="growth at 10 µM" scale_unit=% endpoint_result=104
